target.entity: nuclear factor-kappa B (NF-kB)-inducing kinase (NIK) (Homo sapiens (Human), UniProt Q99558)
Sequence (Q99558 whole entry): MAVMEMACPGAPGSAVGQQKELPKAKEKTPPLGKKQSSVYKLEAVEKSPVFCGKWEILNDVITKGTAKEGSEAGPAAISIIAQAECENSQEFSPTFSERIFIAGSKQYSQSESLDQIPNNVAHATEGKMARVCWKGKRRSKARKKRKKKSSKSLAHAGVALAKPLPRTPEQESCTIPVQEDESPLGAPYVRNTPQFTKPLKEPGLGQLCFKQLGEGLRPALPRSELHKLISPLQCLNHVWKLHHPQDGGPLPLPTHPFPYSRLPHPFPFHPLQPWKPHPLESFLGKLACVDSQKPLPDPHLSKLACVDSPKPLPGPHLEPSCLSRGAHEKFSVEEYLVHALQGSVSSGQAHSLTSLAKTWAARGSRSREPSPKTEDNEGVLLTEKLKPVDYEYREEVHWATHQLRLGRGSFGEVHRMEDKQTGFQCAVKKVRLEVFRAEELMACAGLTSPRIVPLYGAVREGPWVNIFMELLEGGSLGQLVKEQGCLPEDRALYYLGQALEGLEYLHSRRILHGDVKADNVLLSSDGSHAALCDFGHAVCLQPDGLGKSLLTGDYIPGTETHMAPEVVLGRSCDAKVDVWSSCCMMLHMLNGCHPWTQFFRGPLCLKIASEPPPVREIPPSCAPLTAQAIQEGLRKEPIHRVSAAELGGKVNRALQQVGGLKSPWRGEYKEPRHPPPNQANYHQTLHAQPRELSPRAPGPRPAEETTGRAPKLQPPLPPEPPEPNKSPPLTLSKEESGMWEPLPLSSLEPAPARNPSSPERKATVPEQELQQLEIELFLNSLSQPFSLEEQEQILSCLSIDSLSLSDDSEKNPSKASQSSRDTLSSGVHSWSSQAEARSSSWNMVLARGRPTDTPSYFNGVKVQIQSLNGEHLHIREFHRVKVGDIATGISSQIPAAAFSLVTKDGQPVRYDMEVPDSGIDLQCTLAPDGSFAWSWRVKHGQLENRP
assay: NIK enzyme inhibition assay (Transcreener ADP, NIK ADP-FP)
Format: biochemical
experimental.context: purified NIK 0.5 nM, 10 μM ATP, fluorescence polarization; read-out: NIK ADP-FP (Ki μM)
metric: Ki (nM)
Give just the number in nM; leave the unit off.

Below: 4 molecules and their reported Ki.
{"item.smiles": "CN1CC[C@@](O)(C#Cc2cccc(-n3nc(C(N)=O)c4ccc(C#N)cc43)c2)C1=O", "numeric.readout": 0.5}
{"item.smiles": "CN1CC[C@@](O)(C#Cc2cccc(-c3nc(C(N)=O)n4ccc(Cl)cc34)c2)C1=O", "numeric.readout": 0.05}
{"item.smiles": "CN1CC[C@@](O)(C#Cc2cccc(-n3nc(C(N)=O)c4c3CCNC4)c2)C1=O", "numeric.readout": 233}
{"item.smiles": "CN1CC[C@@](O)(C#Cc2cccc(-n3nc(C(N)=O)c4cccc(F)c43)c2)C1=O", "numeric.readout": 1.27}

Which Ki is listed for CN1CC[C@@](O)(C#Cc2cccc(-c3nc(C(N)=O)n4cccnc34)c2)C1=O ?
0.05

Also CN1CC[C@@](O)(C#Cc2cc(C#N)cc(-n3nc(C(N)=O)c4cccnc43)c2)C1=O , if possible.
4.86

Likewise for CN1CC[C@@](O)(C#Cc2cccc(-n3nc(C(N)=O)c4cnc(Cl)cc43)c2)C1=O ?
0.05

Request: CN1CC[C@@](O)(C#Cc2cccc(-n3nc(C(N)=O)c4c3CCC[C@H]4n3cccn3)c2)C1=O
606
